Values were extracted from patent US20110092476A1.

- targetOrSystem: P2X7 receptor (Homo sapiens)
- Construct: host or cells: THP-1 cells differentiated with LPS and IFN-γ
- Sequence (Q99572 1-595): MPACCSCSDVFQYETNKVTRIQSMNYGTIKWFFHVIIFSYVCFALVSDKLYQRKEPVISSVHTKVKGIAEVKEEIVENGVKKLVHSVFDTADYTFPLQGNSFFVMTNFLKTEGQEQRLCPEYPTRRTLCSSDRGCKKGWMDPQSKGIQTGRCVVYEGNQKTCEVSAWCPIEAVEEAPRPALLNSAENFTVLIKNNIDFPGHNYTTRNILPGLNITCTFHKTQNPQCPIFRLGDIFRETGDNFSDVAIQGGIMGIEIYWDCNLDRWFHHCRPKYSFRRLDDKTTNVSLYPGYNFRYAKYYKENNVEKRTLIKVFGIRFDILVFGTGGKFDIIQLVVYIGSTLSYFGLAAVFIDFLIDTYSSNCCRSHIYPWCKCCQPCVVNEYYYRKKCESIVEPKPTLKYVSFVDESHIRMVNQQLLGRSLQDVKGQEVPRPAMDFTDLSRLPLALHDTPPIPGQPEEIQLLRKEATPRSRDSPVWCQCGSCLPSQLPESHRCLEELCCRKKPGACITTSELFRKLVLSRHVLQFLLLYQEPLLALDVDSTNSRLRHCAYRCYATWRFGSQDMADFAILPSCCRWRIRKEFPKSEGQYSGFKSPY
- runDescription: IL-1β release assay in differentiated THP-1 cells stimulated with BzATP (Example 9)
- Format: cell-based
- conditionDescription: 0.3 μM compound (symbols +); differentiated THP-1 cells, BzATP 250 uM; read-out: IL-1β % Inhib. @ 0.3 or 0.1 uM
// reported inhibition at 0.3 µM for each item listed

O=C(Cc1ccc(C(F)(F)F)cc1)Nc1cccc2c(=O)n(CCO)ccc12 [Compound 7]; 26 to 50%

Looking up Cc1cccc(CCC(=O)Nc2cccc3c(=O)n(CC4(O)CCCCC4)ccc23)c1 [Compound 53] , I found its inhibition at 0.3 µM recorded as 0 to 25%

Looking up O=C(Nc1cccc2c(=O)n(CC3(O)CCCCC3)ccc12)c1cc2cc(Cl)ccc2o1 [Compound 54] , I found its inhibition at 0.3 µM recorded as 26 to 50%

Looking up O=C(CCc1ccccc1)Nc1cccc2c(=O)n(CCO)ccc12 [Compound 3] , I found its inhibition at 0.3 µM recorded as 51 to 75%

Looking up O=C(Cc1ccccc1)Nc1cccc2c(=O)n(CCO)ccc12 [Compound 76] , I found its inhibition at 0.3 µM recorded as 0 to 25%

Looking up COc1ccccc1CC(=O)Nc1cccc2c(=O)n(CC3(O)CCCCC3)ccc12 [Compound 29] , I found its inhibition at 0.3 µM recorded as 26 to 50%

Looking up O=C(Cc1ccc(Cl)cc1Cl)Nc1cccc2c(=O)n(C(CO)CO)ccc12 [Compound 82] , I found its inhibition at 0.3 µM recorded as 51 to 75%

Looking up O=C(CCc1ccc(Cl)cc1)Nc1cccc2c(=O)n(CC3(O)CCCCC3)ccc12 [Compound 49] , I found its inhibition at 0.3 µM recorded as 0 to 25%

Looking up O=C(Nc1cccc2c(=O)n(CCO)ccc12)c1ccc(C(F)(F)F)cc1C(F)(F)F [Compound 6] , I found its inhibition at 0.3 µM recorded as 26 to 50%

Looking up O=C(Nc1cccc2c(=O)n(CCO)ccc12)c1ccccc1 [Compound 1] , I found its inhibition at 0.3 µM recorded as 0 to 25%

Looking up Cc1cccc(C(=O)Nc2cccc3c(=O)n(CC4(O)CCCCC4)ccc23)c1Cl [Compound 55] , I found its inhibition at 0.3 µM recorded as 0 to 25%
